Data origin, for the record: ChEMBL document CHEMBL1137358

Parameter selectivity ratio: see the listing below.
Test system: CYP2A6 over CYP2E1
protocol_details: Selectivity for CYP2A6 over CYP2E1
study_conditions: human
Just the number, please, no unit after it.

The following compounds have reported results that may help.
Short answer on CYP2A6 over CYP2E1 for `Cc1ccsc1-c1ccc(F)nc1` , selectivity ratio: 285

Short answer on CYP2A6 over CYP2E1 for `Cn1cnc(-c2cccnc2)c1` , selectivity ratio: 5

Short answer on CYP2A6 over CYP2E1 for `c1cncc(-c2ccc(C3SCCS3)o2)c1` , selectivity ratio: 0.04

Short answer on CYP2A6 over CYP2E1 for `Cc1csc(-c2cccnc2)n1` , selectivity ratio: 2.3

Short answer on CYP2A6 over CYP2E1 for `CC(=O)SCc1ccc(-c2cccnc2)o1` , selectivity ratio: 0.3

***
Short answer on CYP2A6 over CYP2E1 for `NCc1ccc(-c2ccccc2)s1` , selectivity ratio: 0.1

Short answer on CYP2A6 over CYP2E1 for `CSCc1ccc(-c2cccnc2)o1` , selectivity ratio: 0.9

Short answer on CYP2A6 over CYP2E1 for `c1cncc(-c2cc[nH]n2)c1` , selectivity ratio: 0.4

Short answer on CYP2A6 over CYP2E1 for `CNCC#Cc1cccnc1` , selectivity ratio: 43.1

Short answer on CYP2A6 over CYP2E1 for `c1cncc(-c2c[nH]cn2)c1` , selectivity ratio: 17

Short answer on CYP2A6 over CYP2E1 for `NCc1cc(-c2cccnc2)no1` , selectivity ratio: 105

Short answer on CYP2A6 over CYP2E1 for `Cc1cscc1-c1ccccc1` , selectivity ratio: 2.9

Short answer on CYP2A6 over CYP2E1 for `NCc1ccc(-c2ccccc2)o1` , selectivity ratio: 1.3

###

protocol_details: Stability in human liver microsome
study_conditions: liver microsomes
Rule: Fulfilled for half-life not less than 2 h, Not fulfilled for anything less.

IN: Does half-life meet or surpass 2 h for `CNCC#Cc1cccnc1` ?
OUT: Fulfilled

IN: Does half-life meet or surpass 2 h for `NCc1cc(-c2cccnc2)no1` ?
OUT: Fulfilled

IN: Does half-life meet or surpass 2 h for `NCc1cc(-c2cccnc2)n[nH]1` ?
OUT: Fulfilled

IN: Does half-life meet or surpass 2 h for `Cc1nccn1-c1cccnc1` ?
OUT: Fulfilled

IN: Does half-life meet or surpass 2 h for `CNCc1ccc(-c2cccnc2)s1` ?
OUT: Not fulfilled

IN: Does half-life meet or surpass 2 h for `Cc1ccsc1-c1cccnc1` ?
OUT: Not fulfilled

***
IN: Does half-life meet or surpass 2 h for `CNCc1ccc(-c2cccnc2)o1` ?
OUT: Not fulfilled

IN: Does half-life meet or surpass 2 h for `Cc1ccsc1-c1ccc(F)nc1` ?
OUT: Not fulfilled

IN: Does half-life meet or surpass 2 h for `c1cncc(-c2c[nH]cn2)c1` ?
OUT: Fulfilled

IN: Does half-life meet or surpass 2 h for `c1cncc(-c2ccsc2)c1` ?
OUT: Fulfilled

###

Tested on: CYP2A6 over CYP2B6
protocol_details: Selectivity for CYP2A6 over CYP2B6
parameter_measured: selectivity ratio
Just the number, please, no unit after it.

Quick note, selectivity ratio for `c1cncc(-c2cc[nH]n2)c1` landed at 5.6

Quick note, selectivity ratio for `NCc1cc(-c2cccnc2)n[nH]1` landed at 114

***
Quick note, selectivity ratio for `Cc1cscc1-c1ccccc1` landed at 4.2

Quick note, selectivity ratio for `NCc1ccc(-c2ccccc2)s1` landed at 1.1

Quick note, selectivity ratio for `CC(=O)SCc1ccc(-c2cccnc2)o1` landed at 1

Quick note, selectivity ratio for `Cc1ccsc1-c1ccc(F)nc1` landed at 9.1

Quick note, selectivity ratio for `c1cncc(-c2ccsc2)c1` landed at 42

Quick note, selectivity ratio for `c1cncc(-c2ccc(C3SCCS3)o2)c1` landed at 0.4

Quick note, selectivity ratio for `CNCC#Cc1cccnc1` landed at 22.2

Quick note, selectivity ratio for `c1ccc(-c2ccsc2)cc1` landed at 0.8

Quick note, selectivity ratio for `CSCc1ccc(-c2cccnc2)o1` landed at 59

Quick note, selectivity ratio for `CN(C)CC#Cc1cccnc1` landed at 2.8

Quick note, selectivity ratio for `NCc1cc(-c2cccnc2)no1` landed at 91.1

Quick note, selectivity ratio for `NCc1ccc(-c2ccccc2)o1` landed at 6.4
